Field: growth. Provide a value for each of the molecules that follow.
# System: HOP-62 NSCLC
# Assay Summary: NCI-60 one-dose screen, 48 h (100 = growth as untreated, 0 = no growth, -100 = all killed)
# Run Parameters: 10 µM unless noted
This is part of a sample that, as a whole, favours compounds with a hit. Of some 83,000 tested, about 20% had one in any assay. Calls of active or inactive are those of the source. How the source made its calls: active means growth percent below 10; inactive means the rest.

Molecule: O=C1CC(c2ccc3c(c2)OCO3)Nc2ccccc21 (stereo not given)
Attribute Measured: growth
Measured Value: 24.2% (inactive)

Batch: growth for all items listed.
1. COc1ccc(/C=C(/C(=O)c2ccc(Cl)cc2)C(=O)C(F)(F)F)cc1
2. CCOc1ccc2sc(NS(=O)(=O)c3ccc(N)cc3)nc2c1
3. C[C@H]1[C@H](C)CC[C@]2(C(=O)O)CC[C@]3(C)C(=CC[C@@H]4[C@@]5(C)C/C(=C/c6ccco6)C(=O)C(C)(C)[C@@H]5CC[C@]43C)[C@H]12
4. Cc1ccc(-c2cn(C/C=C3\C=CN(S(=O)(=O)c4ccccc4)CC3)nn2)cc1
5. Cn1cc(-c2noc(-c3cn(C)c4ncccc34)n2)c2cc(Cl)ccc21
6. CCc1ccc(-c2ccc(COc3ccc(CC4SC(=O)NC4=O)cc3)cc2)cc1 (stereo not given)
7. CCOC(=O)C(=Cc1ccccc1[N+](=O)[O-])C(=O)OCC

OUTPUT:
91.9% (inactive)
100% (inactive)
-75.7% [100 µM] (active)
97.6% (inactive)
93.2% (inactive)
84.5% (inactive)
27.3% (inactive)

Batch: growth for all items listed.
1. C#CC(OC(=O)N(C)C)(c1ccccc1)c1ccc(F)cc1 (stereo not given)
2. Cc1cccc([N+](=O)[O-])c1I
3. CCOC(=O)COc1c(C)cc(SSc2cc(C)c(OCC(=O)OCC)c(C)c2)cc1C
4. COC(=O)[C@@H](NC(=O)NC(=O)NC(=O)CI)C(C)C
5. N/C(=N\c1nc2ccccc2[nH]1)NC(=O)Cc1cccc2ccccc12
6. COc1ccc(-c2c(C)nn3c(NCCN4CCOCC4)cc(C)nc23)cc1OC
7. Cn1c(=O)c(C#N)c(-c2ccco2)n2c(S(=O)(=O)Cc3ccccc3)nnc12

OUTPUT:
1: 116% (inactive); 2: 101% (inactive); 3: 109% (inactive); 4: 86.3% (inactive); 5: 108% (inactive); 6: 95% (inactive); 7: 104% (inactive)

Batch: growth for all items listed.
1. O=C(CSc1nccc(Nc2ccc(S(=O)(=O)Nc3ccccn3)cc2)n1)c1ccc(Cl)cc1
2. COc1ccc(-c2cc(-c3ccc(Cl)cc3)nc(SCCCCCCC(=O)NO)n2)cc1
3. CC(C)[C@H]1COC(=O)N1[C@@H]1C(=O)N([C@@H](CCC(=O)N2CCN(C3CCCC3)CC2)C(=O)N[C@@H]2CCCc3ccccc32)[C@@H]1/C=C/c1cccc(Cl)c1
4. CC(C)C1=NOC(=O)C1=Cc1cn(-c2ccccc2)nc1-c1ccc(Cl)cc1
5. C[n+]1c(-c2ccccc2)c2cc(N)ccc2c2ccccc21

OUTPUT:
83.5% (inactive)
7.61% (active)
79% (inactive)
92.4% (inactive)
63.8% (inactive)

* * *

Field: growth. Provide a value for each of the compounds that follow.
# Test system: SK-OV-3 ovarian
# Assay Summary: NCI-60 one-dose screen, 48 h (100 = growth as untreated, 0 = no growth, -100 = all killed)
# Run Parameters: 10 µM unless noted
Compounds without any hit were thinned out: in the full panel of roughly 83,000, 20% have a hit. Calls of active or inactive are those of the source. Rule for the calls: active = growth percent below 10; inactive = the rest.

Field: example entries. Status: answers known.
Compound: Clc1ccc(/C=N/Nc2nc3ccccc3s2)c(Cl)c1
growth: 74% (inactive)
--
Compound: CCN(CCO)CCC(=O)c1ccc([N+](=O)[O-])cc1
growth: 107% (inactive)
--
Compound: O=C1/C(=C/c2ccc(OCc3ccccc3)cc2)Oc2cc(OCCN3CCCCC3)ccc21
growth: 104% (inactive)
--
Compound: COC(=O)c1cc2c(=O)[nH]cc3c2c(n1)CCC3
growth: 100% (inactive)
--
Compound: CCOC(=O)C1=C(C(=O)c2ccc(Br)cc2)C(c2ccc(Br)cc2)NC(=S)N1 (centres undefined)
growth: 110% (inactive)
--
Compound: COc1ncnc2c(-c3ccccc3)cn(COCc3ccccc3)c12
growth: 82.7% (inactive)
--
Compound: Cn1ncc2c(Nc3ccc(O)cc3)nc(Cl)nc21
growth: 105% (inactive)
--
Compound: C=C(C)[C@@H]1CC[C@]2(COC(=O)c3ccccc3C(=O)O)CC[C@]3(C)[C@H](CC[C@@H]4[C@@]5(C)CC[C@H](OC(=O)c6ccccc6C(=O)O)C(C)(C)[C@@H]5CC[C@]43C)[C@@H]12
growth: 47.9% [100 µM] (inactive)

Batch: growth for all items listed.
1. c1coc2occoc=2o1
2. CCOC(=O)c1cnc2ccc(Br)cc2c1Nc1cccc(S(N)(=O)=O)c1

OUTPUT:
1. 99.6% (inactive)
2. 105% (inactive)

Batch: growth for all items listed.
1. O=C(Nc1ccc(Oc2ccc(F)cc2)c(Cl)c1)c1cccnn1
2. CCN(CC)c1ccc2cc(C(Nc3ccc(C)cc3)c3nnnn3C(C)(C)C)c(=O)oc2c1 (centres undefined)
3. CC(C)c1ccc(/C=N/N=C(N)N)cc1
4. Cc1cc(-c2ccc(N=Nc3c(S(=O)(=O)O)cc4cc(S(=O)(=O)O)cc(N)c4c3O)c(C)c2)ccc1N=Nc1cc(S(=O)(=O)O)c2ccccc2c1O

OUTPUT:
1: 88.8% (inactive); 2: 102% (inactive); 3: 85.5% (inactive); 4: 93.4% (inactive)

Batch: growth for all items listed.
1. CCCOc1ccc(-c2nc(-c3ccc(N)cc3)cs2)cc1
2. Cc1nc(Cl)c2c(n1)N(C)c1ccc(Cl)cc1C(C)C2 (centres undefined)
3. CC1=C/C(=C(\c2cc(C)c(O)c(C(=O)O)c2)c2c(Cl)cccc2Cl)C=C(C(=O)O)C1=O
4. COc1cc2c(c(OC)c1OC)-c1ccc(NNC(N)=S)c(=O)cc1[C@@H](NC(C)=O)CC2
5. O=C(O)c1ccccc1C(F)(F)F
6. CCCCCn1sc(=O)n(Cc2ccc(CNC(=O)OCc3ccc4cccc(O)c4n3)cc2)c1=O
7. O=C(Oc1ccc(Cl)cc1[N+](=O)[O-])Oc1ccc(Cl)cc1[N+](=O)[O-]
8. O=C(CCN1CCCCC1)c1ccc2ccccc2c1

OUTPUT:
1. 105% (inactive)
2. 86.3% (inactive)
3. 93.3% (inactive)
4. 7.84% (active)
5. 93.1% (inactive)
6. 41.7% (inactive)
7. 120% (inactive)
8. 105% (inactive)

Batch: growth for all items listed.
1. C[n+]1cccc(NC(=O)c2ccc3ccc4ccc(C(=O)Nc5ccc[n+](C)c5)nc4c3n2)c1
2. C=C(C)[C@@H]1CC[C@]2(C(=O)NCCNCCNCCN)CC[C@]3(C)[C@H](CC[C@@H]4[C@@]5(C)CCC(=O)C(C)(C)[C@@H]5CC[C@]43C)[C@@H]12
3. C=C(C)[C@@H]1CC[C@]2(C(N)=O)CC[C@]3(C)[C@H](CC[C@@H]4[C@@]5(C)CC[C@H](O)C(C)(C)[C@@H]5CC[C@]43C)[C@@H]12
4. CC(C)CCSC1=CC(=O)c2ccccc2C1=O
5. O=C(O)c1cccc(CN2CCN(c3cc4c(cc3F)c(=O)c(C(=O)O)cn4C3CC3)CC2)c1O
6. CC(C)C1=NOC(=O)C1=Cc1cn(-c2ccco2)nc1-c1ccccc1
7. O=S(=O)(NCCNc1nccc(-c2c(-c3cccc(F)c3)nc3occn23)n1)c1ccc(C(F)(F)F)cc1

OUTPUT:
8.34% (active)
70.5% [100 µM] (inactive)
-45.7% [100 µM] (active)
104% (inactive)
101% (inactive)
102% (inactive)
79.5% (inactive)

* * *

# Test system: HT29 colon
# Assay Summary: NCI-60 one-dose screen, 48 h (100 = growth as untreated, 0 = no growth, -100 = all killed)
# Run Parameters: 10 µM unless noted
About 83,000 compounds went through this panel and 20% of them were active in at least one assay; those are over-represented in the sample as a whole. Calls of active or inactive are those of the source. The calls were made as follows: active = growth percent below 10; inactive = the rest.
Attribute Measured: growth

Compound: Cn1cc(-c2nnc(-c3cn(C)c4ncccc34)s2)c2ccccc21
Assay System: HT29 colon
growth: 54.3% (inactive)
--
Compound: CCn1cc(-c2[nH]c(=S)ncc2-c2ccc(Cl)cc2)c(-c2ccc(Br)cc2)n1
Assay System: HT29 colon
growth: 92.1% (inactive)
--
Compound: CC(C)OC(=O)Nc1cc(F)ccc1F
Assay System: HT29 colon
growth: 98.3% (inactive)
--
Compound: CCCCCCSc1ncnc2nc[nH]c12
Assay System: HT29 colon
growth: 103% (inactive)
--
Compound: O=C(CCN1CCCCC1)c1ccc(Cl)cc1
Assay System: HT29 colon
growth: 104% (inactive)

Batch: growth for all items listed.
1. O=C(Nc1ccc(C(=O)/C=C/c2ccc(N3CCOCC3)cc2)cc1)Nc1ccc([N+](=O)[O-])cc1
2. C=CC1=C(C)C2=NC1=CC1=NC(=CC3=C(C)C4=C(O)C(C(=O)O)C(=C5NC(=C2)C(C)C5CCC(=O)O)C4=N3)C(CC)=C1C (stereo not given)

OUTPUT:
1. 88.6% (inactive)
2. 105% (inactive)

Batch: growth for all items listed.
1. Cc1ccc(S(=O)(=O)N/N=C2\CC3CCC2(C)C3(C)C)cc1 (stereo not given)
2. CSc1nc(=S)c2nc(SC)n(-c3ccccc3)c2[nH]1
3. O=c1cc(-c2ccccc2)oc2cc(OCc3cn(Cc4ccc(F)cc4)nn3)cc(O)c12

OUTPUT:
1. 108% (inactive)
2. 92.3% (inactive)
3. 100% [100 µM] (inactive)
